In this section, each of the compounds is paired with its reported % Breakage.
molecular target: AGE-BSA (Bos taurus); construct: Bovine serum albumin (fraction V) (BSA); from tissue; host or cells: bovine serum (fraction V); own knowledge: fraction V is the albumin fraction of plasma/serum; experiment: In-vitro screening for AGE-breaking activity (AGE-BSA incubated with compound; ELISA / gel permeation chromatography); format: biochemical, bovine; conditions: 5 mM compound, 37° C., 24 hours
State the value with its unit after it.

The following compounds have reported results that may help.
Molecule Smiles: Cc1cc(C)n(Cc2cc(-c3ccc[n+](CC(=O)c4ccc(C)s4)c3)[nH]n2)n1.[Cl-]
% Breakage: 52.97%
//
Molecule Smiles: O=C(C[n+]1cccc(-c2cc(Cc3ccccc3)nn2-c2ccccc2)c1)c1cccs1.[Cl-]
% Breakage: 76.84%
//
Molecule Smiles: Cc1cc(C)n(Cc2cc(-c3ccc[n+](CC(=O)c4cc([N+](=O)[O-])cs4)c3)[nH]n2)n1.[Br-]
% Breakage: 85.31%

[in] Provide measured % Breakage value, entry: O=C(C[n+]1cccc(-c2cc(Cc3ccccc3)n[nH]2)c1)NC12CC3CC(CC(C3)C1)C2.[Cl-]
[out] 98.59%

###

In this section, each of the molecules is paired with its reported Relative Free Radical Scavenging Activity (%) on ABTS.
experiment: Free radical scavenging activity on ABTS radical cation; type: biochemical; conditions: 50.0 μM
Entry rule: numbers only, all in %.

The following molecules have reported results that may help.
Molecule Smiles: O=C(C[n+]1cccc(-c2cc(-c3ccc[n+](CC(=O)c4cccs4)c3)[nH]n2)c1)c1cccs1.[Br-].[Br-]
Value Observed: 85.75
--
Molecule Smiles: Cc1cc(C)n(Cc2cc(-c3ccc[n+](CC(=O)c4cccs4)c3)n(-c3ccccc3)n2)n1.[Cl-]
Value Observed: 64.01

[in] Provide measured Relative Free Radical Scavenging Activity (%) on ABTS value, entry: O=C(C[n+]1cccc(-c2cc(CCC3CCCCC3)n[nH]2)c1)c1ccccc1.[Cl-]
[out] 30.31

[in] Provide measured Relative Free Radical Scavenging Activity (%) on ABTS value, entry: Cc1cc(C)n(Cc2cc(-c3ccc[n+](CC(=O)c4ccccc4)c3)[nH]n2)n1.[Cl-]
[out] 83.56

###

biological target: AGE-BSA (Bos taurus); construct: Bovine serum albumin (fraction V) (BSA); from tissue; host or cells: bovine serum (fraction V); own knowledge: fraction V is the albumin fraction of plasma/serum; assay: In-vitro screening for AGE-breaking activity (AGE-BSA incubated with compound; ELISA / gel permeation chromatography); type: biochemical, bovine; settings: 10 mM compound, 37° C., 24 hours
In this section, each of the molecules is paired with its reported % Breakage.

The following molecules have reported results that may help.
Molecule: O=C(C[n+]1cccc(-c2cc(Cc3ccccc3)nn2-c2ccccc2)c1)NC1CC1.[Cl-] [Compound 15]
Value Observed: 80.03%
--
Molecule: O=C(C[n+]1cccc(-c2cc(COc3ccccc3)n[nH]2)c1)NC1CC1.[Cl-] [Compound 31]
Value Observed: 45.72%
--
Molecule: O=C(C[n+]1cccc(-c2cc(CCC3CCCCC3)nn2-c2ccccc2)c1)c1cccs1.[Br-] [Compound 37]
Value Observed: 85.45%
--
Molecule: Cl.c1ccc(OCc2cc(-c3cccnc3)[nH]n2)cc1 [Compound 40]
Value Observed: 66.06%

[in] Find the measured % Breakage of O=C(C[n+]1cccc(-c2cc(COc3ccccc3)n[nH]2)c1)N1CCC(Cc2ccccc2)CC1.[Br-] [Compound 16] with AGE-BSA (Bos taurus) as test system.
[out] 95.51%

[in] Find the measured % Breakage of O=C(C[n+]1cccc(-c2cc(COc3ccccc3)n[nH]2)c1)c1cccs1.[Cl-] [Compound 24] with AGE-BSA (Bos taurus) as test system.
[out] 97.72%

[in] Find the measured % Breakage of O=C(C[n+]1cccc(-c2cc(CCC3CCCCC3)n[nH]2)c1)c1ccccc1.[Cl-] [Compound 22] with AGE-BSA (Bos taurus) as test system.
[out] 100.00%

[in] Find the measured % Breakage of O=C(C[n+]1cccc(-c2cc(COc3ccccc3)nn2-c2ccccc2)c1)c1ccccc1.[Cl-] [Compound 34] with AGE-BSA (Bos taurus) as test system.
[out] 100.0%

###

test system: Maillard reaction in-vitro (BSA, ribose); assay: Test for AGE inhibiting activity (Maillard reaction in-vitro, BSA + ribose, fluorescence); type: biochemical, bovine; details: 5 mM compound; 37° C., 7 days
Result Type: % Inhibition (Day 7)
State the value with its unit after it.

[in] Provide measured % Inhibition (Day 7) value, entry: O=C(C[n+]1cccc(-c2cc(Cc3ccccc3)nn2-c2ccccc2)c1)c1ccccc1.[Cl-]
[out] 64.23%

[in] Provide measured % Inhibition (Day 7) value, entry: Cc1cc(C)n(Cc2cc(-c3ccc[n+](CC(=O)c4ccc(C)s4)c3)[nH]n2)n1.[Cl-]
[out] 79%

###

target: AGE-BSA (Bos taurus, UniProt P02769); construct: Bovine serum albumin (fraction V) (BSA); from tissue; host or cells: bovine serum (fraction V); own knowledge: fraction V is the albumin fraction of plasma/serum; test: In-vitro screening for AGE-breaking activity (AGE-BSA incubated with compound; ELISA / gel permeation chromatography); type: biochemical, bovine; settings: 10 mM compound, 37° C., 24 hours
Sequence (P02769 25-607): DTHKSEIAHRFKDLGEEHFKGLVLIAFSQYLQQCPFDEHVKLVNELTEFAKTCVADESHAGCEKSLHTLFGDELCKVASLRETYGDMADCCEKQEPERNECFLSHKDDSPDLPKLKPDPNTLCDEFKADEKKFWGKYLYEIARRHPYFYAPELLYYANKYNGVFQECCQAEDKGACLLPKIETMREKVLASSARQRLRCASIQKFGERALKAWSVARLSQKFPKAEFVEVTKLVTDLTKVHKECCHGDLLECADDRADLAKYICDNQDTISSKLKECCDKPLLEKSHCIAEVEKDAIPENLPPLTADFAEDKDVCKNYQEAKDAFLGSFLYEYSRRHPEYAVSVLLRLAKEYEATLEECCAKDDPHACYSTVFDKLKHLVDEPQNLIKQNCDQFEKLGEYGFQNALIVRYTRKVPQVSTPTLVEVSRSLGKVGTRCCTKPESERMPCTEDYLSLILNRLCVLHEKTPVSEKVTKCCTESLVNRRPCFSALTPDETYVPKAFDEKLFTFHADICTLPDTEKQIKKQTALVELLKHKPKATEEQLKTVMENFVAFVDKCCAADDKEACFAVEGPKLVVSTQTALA
In this section, each of the compounds is paired with its reported % Breakage.

Molecule Smiles: Cc1cc(C)n(Cc2cc(-c3ccc[n+](CC(=O)c4cccs4)c3)n(-c3ccccc3)n2)n1.[Cl-]
Target Entity: AGE-BSA (Bos taurus, UniProt P02769)
Value Observed: 81.05%
//
Molecule Smiles: Cc1ccc(C(=O)C[n+]2cccc(-c3cc(Cc4ccccc4)n[nH]3)c2)s1.[Cl-]
Target Entity: AGE-BSA (Bos taurus, UniProt P02769)
Value Observed: 89.23%

For the next question, use this compound.
[in] Provide measured % Breakage value, entry: Cc1cc(C)n(Cc2cc(-c3ccc[n+](CC(=O)c4ccccc4)c3)n(-c3ccccc3)n2)n1.[Br-]
[out] 42.37%

###

experiment: Free radical scavenging activity on ABTS radical cation; format: biochemical; settings: 50.0 μM
In this section, each of the compounds is paired with its reported Relative Free Radical Scavenging Activity (%) on ABTS.
Entry rule: numbers only, all in %.

[in] Provide measured Relative Free Radical Scavenging Activity (%) on ABTS value, entry: Cc1cc(C)n(Cc2cc(-c3ccc[n+](CC(=O)c4cc([N+](=O)[O-])cs4)c3)[nH]n2)n1.[Br-]
[out] 67.14

[in] Provide measured Relative Free Radical Scavenging Activity (%) on ABTS value, entry: Cc1cc(C)n(Cc2cc(-c3ccc[n+](CC(=O)c4ccc(C)s4)c3)[nH]n2)n1.[Cl-]
[out] 84.41

[in] Provide measured Relative Free Radical Scavenging Activity (%) on ABTS value, entry: O=C(C[n+]1cccc(-c2cc(COc3ccccc3)n[nH]2)c1)c1cccs1.[Cl-]
[out] 83.24

[in] Provide measured Relative Free Radical Scavenging Activity (%) on ABTS value, entry: Cc1ccc(C(=O)C[n+]2cccc(-c3cc(CCC4CCCCC4)n[nH]3)c2)s1.[Cl-]
[out] 34.31

###

system: Maillard reaction in-vitro (BSA, ribose); assay: Test for AGE inhibiting activity (Maillard reaction in-vitro, BSA + ribose, fluorescence); assay type: biochemical, bovine; conditions: 5 mM compound; 37° C., 7 days
Result Type: % Inhibition (Day 7)
State the value with its unit after it.

Molecule Smiles: O=C(C[n+]1cccc(-c2cc(COc3ccccc3)nn2-c2ccccc2)c1)c1cccs1.[Cl-]
Target Entity: Maillard reaction in-vitro (BSA, ribose)
% Inhibition (Day 7): 55.22%
--
Molecule Smiles: O=C(C[n+]1cccc(-c2cc(COc3ccccc3)n[nH]2)c1)c1cccs1.[Cl-]
Target Entity: Maillard reaction in-vitro (BSA, ribose)
% Inhibition (Day 7): 82.5%
--
Molecule Smiles: O=C(C[n+]1cccc(-c2cc(COc3ccccc3)nn2-c2ccccc2)c1)c1ccccc1.[Cl-]
Target Entity: Maillard reaction in-vitro (BSA, ribose)
% Inhibition (Day 7): 60%

For the next question, use this compound.
[in] Find the measured % Inhibition (Day 7) of Cc1cc(C)n(Cc2cc(-c3ccc[n+](CC(=O)c4ccccc4)c3)n(-c3ccccc3)n2)n1.[Br-] with Maillard reaction in-vitro (BSA, ribose) as test system.
[out] 61.45%

Cited source for all entries: patent US7223777B2
